- Tested on: human P-glycoprotein HEK cells (HEK-P-gp)
- method-description: H3K27me3 immunocytochemistry assay in P-gp expressing HEK293T cells, with or without elacridar
- Assay type: cell-based
- measurement-context: Homo sapiens, HEK293, with 250 nM elacridar; 4 days compound treatment; read-out: IC50, inhibitory activity on human P-glycoprotein HEK cells (HEK-P-gp) pretreated with elacridar
The entries below come with measured IC50 values attached.

Asked: Which IC50 value belongs to `Fc1ccc2c3c1CNc1c(cc(-c4cnn5c4CCC5)c4nncn14)OC[C@@H]3CO2` ?
Given back: > 500 nM

Asked: And for `Fc1ccc2c3c1CNc1c(cc(-c4cnc(C5CC5)nc4)c4nncn14)OC[C@@H]3CO2` ?
Given back: 50 to 100 nM

Asked: And for `CN1CCN(c2ccc(-c3cc4c(n5cnnc35)NCc3c(F)ccc5c3[C@H](CO5)CO4)cn2)CC1` ?
Given back: 50 to 100 nM

Asked: And for `Cn1nc(OC(F)F)cc1-c1cc2c(n3cnnc13)NCc1c(F)ccc3c1[C@@H](CO3)CO2` ?
Given back: < 25 nM

---

The entries below come with measured pIC50 values attached.
- study-system: EZH2/PRC2 complex (Homo sapiens, UniProt O75530)
- Sequence (O75530 whole entry): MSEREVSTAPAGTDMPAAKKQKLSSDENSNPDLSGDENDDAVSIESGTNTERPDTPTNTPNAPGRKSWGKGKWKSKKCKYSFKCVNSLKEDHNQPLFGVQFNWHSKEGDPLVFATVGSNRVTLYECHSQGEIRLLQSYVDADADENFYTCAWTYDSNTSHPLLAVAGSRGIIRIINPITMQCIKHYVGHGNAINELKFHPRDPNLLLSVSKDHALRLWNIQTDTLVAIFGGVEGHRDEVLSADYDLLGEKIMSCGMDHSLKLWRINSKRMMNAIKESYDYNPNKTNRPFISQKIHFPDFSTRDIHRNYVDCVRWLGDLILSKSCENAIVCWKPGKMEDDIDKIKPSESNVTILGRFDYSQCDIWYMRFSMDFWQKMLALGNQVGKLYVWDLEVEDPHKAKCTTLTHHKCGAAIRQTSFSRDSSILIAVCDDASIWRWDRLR
- Sequence (Q15910 whole entry partner): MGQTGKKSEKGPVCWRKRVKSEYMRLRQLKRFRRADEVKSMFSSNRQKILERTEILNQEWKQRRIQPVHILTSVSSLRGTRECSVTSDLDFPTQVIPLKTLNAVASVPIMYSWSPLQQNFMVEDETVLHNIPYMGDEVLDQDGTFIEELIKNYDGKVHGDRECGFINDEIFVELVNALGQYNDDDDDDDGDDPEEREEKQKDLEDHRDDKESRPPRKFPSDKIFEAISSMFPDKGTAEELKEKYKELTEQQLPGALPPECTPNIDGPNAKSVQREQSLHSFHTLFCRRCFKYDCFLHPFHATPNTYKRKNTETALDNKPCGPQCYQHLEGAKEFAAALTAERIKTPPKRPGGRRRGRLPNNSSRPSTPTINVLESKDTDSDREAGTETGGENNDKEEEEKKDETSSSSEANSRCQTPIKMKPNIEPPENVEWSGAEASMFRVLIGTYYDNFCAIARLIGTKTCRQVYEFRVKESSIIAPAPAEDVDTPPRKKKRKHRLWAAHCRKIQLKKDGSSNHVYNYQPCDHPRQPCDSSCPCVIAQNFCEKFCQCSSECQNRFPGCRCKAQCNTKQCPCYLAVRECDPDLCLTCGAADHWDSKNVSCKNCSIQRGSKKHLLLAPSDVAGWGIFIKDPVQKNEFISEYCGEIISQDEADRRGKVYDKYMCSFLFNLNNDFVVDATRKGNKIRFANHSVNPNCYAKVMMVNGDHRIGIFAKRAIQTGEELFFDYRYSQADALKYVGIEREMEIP
- Sequence (Q15022 whole entry partner): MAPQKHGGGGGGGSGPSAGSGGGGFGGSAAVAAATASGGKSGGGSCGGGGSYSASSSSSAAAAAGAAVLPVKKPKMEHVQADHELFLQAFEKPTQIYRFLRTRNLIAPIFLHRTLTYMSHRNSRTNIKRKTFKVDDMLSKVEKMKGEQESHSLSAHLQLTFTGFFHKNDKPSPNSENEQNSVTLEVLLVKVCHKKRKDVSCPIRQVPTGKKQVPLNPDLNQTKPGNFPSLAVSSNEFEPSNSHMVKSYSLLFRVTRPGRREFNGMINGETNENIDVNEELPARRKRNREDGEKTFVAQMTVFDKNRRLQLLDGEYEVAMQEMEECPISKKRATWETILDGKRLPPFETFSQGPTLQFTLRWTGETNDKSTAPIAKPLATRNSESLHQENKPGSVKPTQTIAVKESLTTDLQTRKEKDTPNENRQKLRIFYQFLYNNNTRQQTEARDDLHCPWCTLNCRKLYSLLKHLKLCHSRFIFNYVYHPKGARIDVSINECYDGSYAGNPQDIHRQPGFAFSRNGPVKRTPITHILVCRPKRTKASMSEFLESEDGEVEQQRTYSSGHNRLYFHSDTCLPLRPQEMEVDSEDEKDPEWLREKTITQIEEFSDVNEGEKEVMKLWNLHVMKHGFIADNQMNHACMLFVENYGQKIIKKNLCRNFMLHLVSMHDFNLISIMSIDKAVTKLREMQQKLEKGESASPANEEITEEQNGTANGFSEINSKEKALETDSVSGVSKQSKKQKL
- method-description: Histone methyltransferase assay (radioisotope-based HotSpot)
- Assay type: biochemical
- measurement-context: EZH2/PRC2 complex 10 nM, core histone substrate 0.05 mg/ml, 3H-SAM 1 μM; read-out: IC50, inhibitory effects on the HMT enzyme
pIC50: −log10 of the molar value.

Past entries and their recorded results:
> print(dat)
                                   compound                              study.system  value.kind  measured.value
1  Cc1cn(-c2cc3c(n4cnnc24)NCc2c(F)ccc4c2[C@@H](CO4)CO3)cn1  EZH2/PRC2 complex (Homo sapiens, UniProt O75530)       pIC50          > 7.60
2  Cc1cc(C#N)ccc1-c1cc2c(n3cnnc13)NCc1c(F)ccc3c1[C@H](CO3)CO2  EZH2/PRC2 complex (Homo sapiens, UniProt O75530)       pIC50          > 7.60
3    c1cc2c3c(c1)OC[C@H]3COc1ccc3nncn3c1NC2  EZH2/PRC2 complex (Homo sapiens, UniProt O75530)       pIC50    6.30 to 7.00
4  COC(=O)N1CCC(c2cc3c(n4cnnc24)NCc2c(F)ccc4c2C(CO4)CO3)CC1 (centres unmarked)  EZH2/PRC2 complex (Homo sapiens, UniProt O75530)       pIC50          > 7.60

Asked: What reported pIC50 corresponds to `Cn1cc(Cc2cc3c(n4cnnc24)NCc2c(F)ccc4c2[C@@H](CO4)CO3)cn1` on EZH2/PRC2 complex (Homo sapiens, UniProt O75530)?
Given back: > 7.60

Asked: And for `Cc1ncccc1-c1cc2c(n3cnnc13)NCc1c(F)cccc1COC2` ?
Given back: < 6.30

Asked: And for `Fc1cncnc1-c1cc2c(n3cnnc13)NCc1c(F)ccc3c1[C@@H](CO3)CO2` ?
Given back: > 7.60

Asked: And for `COc1ncc(-c2cc3c(n4cnnc24)NCc2c(F)ccc4c2[C@H](CO4)CO3)cn1` ?
Given back: > 7.60
